TARGET OF ASSAY: MAGI2_3, Q86UL8
Sequence (Q86UL8 600-682): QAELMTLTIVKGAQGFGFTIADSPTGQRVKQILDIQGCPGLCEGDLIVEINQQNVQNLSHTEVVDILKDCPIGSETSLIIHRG
METHOD NOTES: holdup assay
Set-up: key: below the threshold = too weak to quantify, mostly under pKd 3.1 to 4
CONDITION DETAILS: plain residues with an end cap or a label only (N-terminal biotin on a linker: ado-ado)
REPORTED METRIC: pKd

[
  {
    "BINDER": "EPAKETTTNV [SLC2A3, P11169]",
    "pKd": "below the threshold"
  },
  {
    "BINDER": "QKASRNESTF [POLR1D, P0DPB6]",
    "pKd": "below the threshold"
  },
  {
    "BINDER": "AHGSTRDQSI [KCNB1, Q14721]",
    "pKd": "below the threshold"
  },
  {
    "BINDER": "FHSIKQSTAV [CRHR1, P34998]",
    "pKd": 3.61
  },
  {
    "BINDER": "VYEVPVETKF [SLC26A3, P40879]",
    "pKd": "below the threshold"
  },
  {
    "BINDER": "GQNMTVSVVI [PRLHR, P49683]",
    "pKd": "below the threshold"
  },
  {
    "BINDER": "DAAHHDESNC [FMNL3, Q8IVF7]",
    "pKd": "below the threshold"
  },
  {
    "BINDER": "AKADAQESRL [PLCB2, Q00722]",
    "pKd": 3.51
  }
]

Hi there! I need pKd for each item below, if you can.
1. ADEMICITTL [CACNA1D, Q01668]
2. DSEEELPTRL [GRK6, P43250]
3. THREVKFTSL [CD46, P15529]
4. PEKVSNTTVV [IGSF5, Q9NSI5]

1: 3.56; 2: below the threshold; 3: below the threshold; 4: 3.51

Hi there! I need pKd for each item below, if you can.
1. TKDKVQETQI [LRRC4, Q9HBW1]
2. QLGSPTADLA [SIPA1, Q96FS4]
3. GSQSQVETEA [FKBP4, Q02790]
4. VISSDDLTEL [CAPN6, Q9Y6Q1]
5. SAGADSETHC [SLCO1B1, Q9Y6L6]

[3.96, 3.56, "below the threshold", 3.68, "below the threshold"]

Hi there! I need pKd for each item below, if you can.
1. YAEKRMLTEV [KCNA6, P17658]
2. DLLGGGSDSI [TNRC6B, Q9UPQ9]
3. IGHEDLETAV [DGKI, O75912]

1: below the threshold; 2: below the threshold; 3: 4.61

Hi there! I need pKd for each item below, if you can.
1. TKEIPNCTSV [SORCS3, Q9UPU3]
2. ELKAEDEVQI [DCHS2, Q6V1P9]
3. KEKASTETEC [TRPM1, Q7Z4N2]
4. SQDPKKPSRV [CBY2, Q8NA61]

1. 3.98
2. below the threshold
3. below the threshold
4. below the threshold

Provide measured pKd value, entry: SRPHTNETSL [MCC, P23508] below the threshold
